This collection of values is drawn from ChEMBL document CHEMBL1157563.

Measurement notes: cells
Type: functional, cell-based
Experimental setup: Homo sapiens, HCC827
Description: Antiproliferative activity against human HCC827 cells after hrs by ATP content assay
Assay endpoint: IC50 (µM)

P. COc1cc2ncnc(Nc3ccc(F)c(Cl)c3)c2cc1OCCCCCCC(=O)NO
Q. C#Cc1cccc(Nc2ncnc3cc(OC)c(OCCCCCCC(=O)NO)cc23)c1 [CUDC-101]
Enquiry: Endpoint returns whichever of P and Q has the numerically higher IC50. Identify your selection by its label.
Return: P
(P: 0.93 µM, Q: 0.6 µM)
